tested on: MS2 coat protein; assay: apparent KD of MS2 coat protein; higher = weaker reporter binding; conditions: Eterna round: R107; input ligand: none
For each entry below, report its apparent KD of MS2 coat protein value.
One number for each entry, in nM.

Would you please look over these solved cases?
# Residue Sequence, Subject Of Test, Scale Unit, apparent KD of MS2 coat protein
measured = [
    ("GACGGUACGUCGGCAAAGCCGAUGUGCCAGCGAGGACCGGUACGGCCGCCACUCGUACAUGAGGAUCACCCAUGUCCGGUCCGUC [Omei Trp SS A C v3]", "MS2 coat protein", "nM", 122),
    ("UGUAUGGACUGAAGGAGCGGGUUGAUACCAUGAGGAUCACCCAUGGAAAAGGCGAAAGCCGCCCAGGUAGGUCGCAGUCCAUACU", "MS2 coat protein", "nM", 12.9),
]

Please give apparent KD of MS2 coat protein for each item listed below.
1. CUAUAUAUAAGAAGGAGCGUCGAAAAUGGGUAAACAUGAGGAUCACCCAUGUAAAGGGAACGACAGGUAGGUCGCUUAUAUAUAG [AstromonsSSArgB#5]
2. UAACAUGAGGAUCACCCAUGUUUGGAGAAACGAGGACCGGUACGGCCGCCACUCGAGGAGUGGAUGAGAAGUGGGAUAGAGUGAU [Same State Trp A GF6]

**Result**
191
19.6

---

test system: MS2 coat protein; assay: apparent KD of MS2 coat protein; higher = weaker reporter binding; settings: Eterna round: R107; input ligand: theophylline 20 uM
Please provide measured apparent KD of MS2 coat protein for the entries that follow.

Before answering, review these 2 worked examples.
# Residue Sequence, Subject Of Test, apparent KD of MS2 coat protein
data = [
    ("UUAUUUAUAAAUGAUACCAGCCGAUUGGCCGCAAAUCCUAACAUGAGGAUCACCCAUGUCGGCCCUUGGCAGCAUUUAUGGGUUU [XTheo B #28]", "MS2 coat protein", "134 nM"),
    ("GUUGCACAUGAGGAUCACCCAUGUUUGGAUACCAGUCUCUGUAAUGACCCUUGGCAGCCACCAUAGACGCUUGAGUAGAGCCUGA [theeternabot_sameState_MS2_Theo_A_21]", "MS2 coat protein", "19.4 nM"),
]

**Query** Give recorded apparent KD of MS2 coat protein. CUGUACAUCUCGGCCGCCACUGCAACAUGUAGAGAUGUAUAUGUACAUGAGGAUCACCCAUGUGGCAGGACCGGGAGGUGUGCAG [SSTryp B #27]
**Result** 128 nM

---

tested on: K4 kissing-loop RNA reporter; assay: apparent KD of K4 kissing-loop reporter; higher = weaker reporter binding; conditions: Eterna round: R107; input ligand: arginine 13.2 mM;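 note: bound reporter read as fluorescence of individual clusters on recovered sequencing chips by microscopy, with normalized cluster intensities fitted with a binding model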
Reported Property: apparent KD of K4 kissing-loop reporter (nM)
Numbers only, in nM.

These recorded examples may help you get a feel for the data.
# Residue Sequence, apparent KD of K4 kissing-loop reporter [nM]
rows = [
    ("AGUAGUCGACAAGGAUAUACUAGGAGAGACGUUUGCACAUAACCUGCCCUACGAAGUGAUGUUUCGGUAGAAGGUGUUGGGCUGU [theeternabot_exclusion_KL_FMN_B_34]", 67),
    ("GUAGAUAGGCAACAUCCCUAGUCUACAGACUAGGAUAUCAGGAAACUGAGAAGGAGUCUCCUUGCAGUGAUGUUGCAAGAAUAAU [[F]''-[K]'-[F]'-[F1]-[F2]-[K1]-[K2]_Design5]", 181),
]

Go through the list and state apparent KD of K4 kissing-loop reporter for each entry.
1. AGUCCACUCUAAAGAGUGGACCUAAGGGAUACCAGUGAUGUUGGUCACCCUUGGCAGCCCACUGUCAUCGAUAAAGAUGGCAGAA
2. GCAGUGAUGUUGCUGAUGUACAGUGGGAUACGAGGACCGGUACGGCCGCCACUCGUACAGAAUUUGUUAAUACAUCGAUAAGUGA [XV]
3. GCAUCCGAUGCAGGAUAUAGAUGAACGAGUGAUGUUUGGAAUUUAUGUCCAAAGCCUACGAUCAAACUAGAAGGGCAUCGGAUGC
4. UAUUCUGUUCGAAAGAACGGAAUUUCGGAAGGAGCGCGAGAAAUCGCAGGUAGGUCGCCGAAAUUAUUAGGUAGUGAUGUUACCU [Arginine A K4 6]

**Result**
1: 98.1; 2: 360; 3: 266; 4: 99.8
